system.tested: UniProt:P11388
Sequence (P11388 whole entry): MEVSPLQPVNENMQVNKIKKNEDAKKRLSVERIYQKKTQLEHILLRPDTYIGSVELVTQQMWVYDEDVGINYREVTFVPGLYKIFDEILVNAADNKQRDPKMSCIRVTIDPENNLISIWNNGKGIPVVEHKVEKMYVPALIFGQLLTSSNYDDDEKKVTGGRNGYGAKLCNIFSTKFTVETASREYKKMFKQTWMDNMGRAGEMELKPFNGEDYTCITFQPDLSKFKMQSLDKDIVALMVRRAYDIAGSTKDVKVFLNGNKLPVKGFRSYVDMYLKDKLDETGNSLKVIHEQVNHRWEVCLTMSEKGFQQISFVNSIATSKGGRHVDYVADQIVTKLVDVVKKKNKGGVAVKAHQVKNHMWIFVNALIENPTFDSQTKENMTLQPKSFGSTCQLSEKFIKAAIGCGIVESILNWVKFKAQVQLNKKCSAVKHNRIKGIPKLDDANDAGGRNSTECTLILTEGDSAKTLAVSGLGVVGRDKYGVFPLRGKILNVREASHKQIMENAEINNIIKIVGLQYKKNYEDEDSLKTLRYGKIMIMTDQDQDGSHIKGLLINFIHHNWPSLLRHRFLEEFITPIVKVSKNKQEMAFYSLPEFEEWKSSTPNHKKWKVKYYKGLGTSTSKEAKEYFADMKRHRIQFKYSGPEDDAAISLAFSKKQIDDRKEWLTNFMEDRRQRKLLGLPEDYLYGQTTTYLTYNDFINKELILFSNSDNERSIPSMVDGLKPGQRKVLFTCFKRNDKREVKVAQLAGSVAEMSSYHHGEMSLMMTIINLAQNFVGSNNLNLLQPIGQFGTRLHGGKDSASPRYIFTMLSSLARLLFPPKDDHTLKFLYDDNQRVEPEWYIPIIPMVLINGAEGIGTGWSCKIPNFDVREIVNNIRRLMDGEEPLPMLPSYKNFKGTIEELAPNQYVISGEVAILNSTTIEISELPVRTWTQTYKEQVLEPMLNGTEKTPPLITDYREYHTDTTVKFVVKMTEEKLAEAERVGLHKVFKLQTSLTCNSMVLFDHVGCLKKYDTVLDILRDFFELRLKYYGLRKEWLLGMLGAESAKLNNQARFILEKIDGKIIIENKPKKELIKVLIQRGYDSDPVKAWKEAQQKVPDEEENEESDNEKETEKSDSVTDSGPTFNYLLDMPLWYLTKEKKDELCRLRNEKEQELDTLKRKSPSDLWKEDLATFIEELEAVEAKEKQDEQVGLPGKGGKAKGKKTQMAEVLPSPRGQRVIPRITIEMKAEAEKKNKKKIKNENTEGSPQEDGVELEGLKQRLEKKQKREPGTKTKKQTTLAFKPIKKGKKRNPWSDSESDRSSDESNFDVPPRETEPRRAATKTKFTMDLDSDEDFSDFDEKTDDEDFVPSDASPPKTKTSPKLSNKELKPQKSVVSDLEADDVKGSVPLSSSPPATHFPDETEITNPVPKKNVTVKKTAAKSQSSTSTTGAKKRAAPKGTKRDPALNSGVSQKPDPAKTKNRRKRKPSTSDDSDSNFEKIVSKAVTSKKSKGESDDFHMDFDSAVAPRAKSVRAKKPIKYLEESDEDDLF
method.summary: Inhibition of strand rejoining activity of human DNA topoisomerase 2 assessed as protein-DNA complex formation at 20 uM by cell-based assay
Design: scale not given: the % may be the effect or the level left
reported.endpoint: Activity (%)

>>> reported_measurement("COC(=O)c1cccc(N[C@@H]2c3cc4c(cc3[C@@H](c3cc(O)c(O)c(OC)c3)[C@H]3C(=O)OC[C@@H]32)OCO4)c1")
94
>>> reported_measurement("COC1=CC([C@@H]2c3cc4c(cc3[C@@H](Nc3cc(C(F)(F)F)cc(C(F)(F)F)c3)[C@H]3COC(=O)[C@@H]32)OCO4)=CC(=O)C1=O")
4
>>> reported_measurement("COC1=CC([C@@H]2c3cc4c(cc3[C@@H](Nc3ccc([N+](=O)[O-])cc3)[C@H]3COC(=O)[C@@H]32)OCO4)=CC(=O)C1=O")
128
>>> reported_measurement("CCOC(=O)c1ccccc1N[C@@H]1c2cc3c(cc2[C@@H](C2=CC(=O)C(=O)C(OC)=C2)[C@H]2C(=O)OC[C@@H]21)OCO3")
4
>>> reported_measurement("COC1=CC([C@@H]2c3cc4c(cc3[C@@H](Nc3cccc([N+](=O)[O-])c3)[C@H]3COC(=O)[C@@H]32)OCO4)=CC(=O)C1=O")
33
>>> reported_measurement("COC1=CC([C@@H]2c3cc4c(cc3[C@@H](O)[C@H]3COC(=O)[C@@H]32)OCO4)=CC(=O)C1=O")
41
>>> reported_measurement("COc1cc([C@@H]2c3cc4c(cc3[C@@H](Nc3ccc(Cl)cc3)[C@H]3COC(=O)[C@H]23)OCO4)cc(O)c1O")
77
>>> reported_measurement("COC1=CC([C@@H]2c3cc4c(cc3[C@@H](Nc3ccc(C(F)(F)F)cc3)[C@H]3COC(=O)[C@@H]32)OCO4)=CC(=O)C1=O")
51
>>> reported_measurement("COc1cc([C@@H]2c3cc4c(cc3[C@@H](O)[C@H]3COC(=O)[C@H]23)OCO4)cc(O)c1O")
50
>>> reported_measurement("COC1=CC([C@@H]2c3cc4c(cc3[C@@H](Nc3ccc(C#N)cc3)[C@H]3COC(=O)[C@@H]32)OCO4)=CC(=O)C1=O")
18
>>> reported_measurement("COC1=CC([C@@H]2c3cc4c(cc3[C@@H](Oc3ccc(F)cc3)[C@H]3COC(=O)[C@@H]32)OCO4)=CC(=O)C1=O")
30
>>> reported_measurement("COc1cc([C@@H]2c3cc4c(cc3[C@@H](Nc3cccc([N+](=O)[O-])c3)[C@H]3COC(=O)[C@H]23)OCO4)cc(O)c1O")
75
>>> reported_measurement("COC1=CC([C@@H]2c3cc4c(cc3[C@@H](Nc3cc([N+](=O)[O-])cc([N+](=O)[O-])c3)[C@H]3COC(=O)[C@@H]32)OCO4)=CC(=O)C1=O")
32
